Target: human SGLT2 (Homo sapiens (Human))
Sequence (P31639 whole entry): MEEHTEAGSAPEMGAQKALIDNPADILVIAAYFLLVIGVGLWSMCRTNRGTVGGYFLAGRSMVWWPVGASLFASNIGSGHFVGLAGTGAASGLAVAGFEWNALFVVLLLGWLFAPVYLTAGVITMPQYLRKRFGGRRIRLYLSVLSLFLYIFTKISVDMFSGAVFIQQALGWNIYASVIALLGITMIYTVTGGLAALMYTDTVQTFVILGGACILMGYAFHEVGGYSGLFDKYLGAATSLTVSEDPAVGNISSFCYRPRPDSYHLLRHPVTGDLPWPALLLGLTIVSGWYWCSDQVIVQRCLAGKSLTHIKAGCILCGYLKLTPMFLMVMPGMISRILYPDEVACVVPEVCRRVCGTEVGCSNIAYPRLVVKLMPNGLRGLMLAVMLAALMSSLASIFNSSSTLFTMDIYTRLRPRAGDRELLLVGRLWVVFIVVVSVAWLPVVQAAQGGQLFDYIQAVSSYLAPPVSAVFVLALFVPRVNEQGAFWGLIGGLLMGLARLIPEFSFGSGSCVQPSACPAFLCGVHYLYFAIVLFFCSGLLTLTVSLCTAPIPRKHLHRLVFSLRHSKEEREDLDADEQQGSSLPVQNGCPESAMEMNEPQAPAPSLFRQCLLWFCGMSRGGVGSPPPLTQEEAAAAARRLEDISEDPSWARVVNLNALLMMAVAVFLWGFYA
Assay: Uptake assay of [14C]-AMG in Flp-In CHO cells stably expressing human SGLT2;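 also: uptake in Na+ containing KRH buffer with compounds added in 1% DMSO, radioactivity of lysed cells read by scintillation counting, SGLT1 tested the same way in matching Flp-In CHO cells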
Type: cell-based
Details: [14C]-AMG uptake, Flp-In CHO cells expressing human SGLT2, 1 hour at 37° C., n = 1-4
assay-endpoint: IC50
Phrase the answer as number then unit, nothing more needed.

Solved entries:
Record "OC[C@H]1O[C@@H](c2ccc(Cl)c(Cc3ccc(OCCCC4COC4)cc3)c2)[C@H](O)[C@@H](O)[C@@H]1O" / human SGLT2 (Homo sapiens (Human)), IC50 recorded as 1.7 nM

Form field IC50 for item [O-][S+]1CC(CCOc2ccc(Cc3cc([C@@H]4O[C@H](CO)[C@@H](O)[C@H](O)[C@H]4O)ccc3Cl)cc2)C1 (stereo partly shown) on human SGLT2 (Homo sapiens (Human)): 6.8 nM

human SGLT2 (Homo sapiens (Human)) assay, compound "OC[C@H]1O[C@@H](c2ccc(Cl)c(Cc3ccc(CC4(F)COC4)cc3)c2)[C@H](O)[C@@H](O)[C@@H]1O" , recorded IC50 = 8.1 nM

Others:
IC50 value, target or system human SGLT2 (Homo sapiens (Human)), for "CC1(COc2ccc(Cc3cc([C@@H]4O[C@H](CO)[C@@H](O)[C@H](O)[C@H]4O)ccc3Cl)cc2)COC1" : 8.3 nM

* * *

Target: human SGLT1 (Homo sapiens (Human))
Sequence (P13866 whole entry): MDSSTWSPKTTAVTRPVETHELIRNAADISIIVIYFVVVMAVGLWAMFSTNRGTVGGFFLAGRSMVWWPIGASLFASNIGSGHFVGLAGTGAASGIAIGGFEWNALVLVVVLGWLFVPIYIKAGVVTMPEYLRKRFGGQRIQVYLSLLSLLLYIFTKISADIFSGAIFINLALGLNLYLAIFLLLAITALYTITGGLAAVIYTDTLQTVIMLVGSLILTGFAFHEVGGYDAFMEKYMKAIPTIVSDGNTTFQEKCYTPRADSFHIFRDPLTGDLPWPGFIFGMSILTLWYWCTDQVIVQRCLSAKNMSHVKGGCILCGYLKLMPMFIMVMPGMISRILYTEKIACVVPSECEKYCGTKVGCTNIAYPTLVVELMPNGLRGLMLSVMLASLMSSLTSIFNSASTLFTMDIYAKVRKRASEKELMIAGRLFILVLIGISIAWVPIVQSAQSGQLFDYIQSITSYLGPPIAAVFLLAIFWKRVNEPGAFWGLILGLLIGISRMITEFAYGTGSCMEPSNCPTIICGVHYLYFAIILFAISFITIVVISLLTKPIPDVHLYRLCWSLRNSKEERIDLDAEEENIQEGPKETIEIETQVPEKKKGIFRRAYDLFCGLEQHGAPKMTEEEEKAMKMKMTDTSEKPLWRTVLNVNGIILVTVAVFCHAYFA
Experiment: Uptake assay of [14C]-AMG in Flp-In CHO cells stably expressing human SGLT1;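 also: uptake run in sodium-containing KRH buffer with compounds added in DMSO (1% final), cell radioactivity read by scintillation counting after lysis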
Assay type: cell-based
Details: [14C]-AMG uptake, Flp-In CHO cells expressing human SGLT1, 1 hour at 37° C., n = 1-4
Property: IC50; scope: individual compounds
Express the result in nM but write the number alone.

The examples below pair each entry with its known result.
Given item [O-][S+]1CC(CCOc2ccc(Cc3cc([C@@H]4O[C@H](CO)[C@@H](O)[C@H](O)[C@H]4O)ccc3Cl)cc2)C1 (stereo partly drawn) , the value recorded as its IC50 is 1020

The compound listed as "OC[C@H]1O[C@@H](c2ccc(Cl)c(Cc3ccc(OCC4CN(c5ccc(F)cc5)C4)cc3)c2)[C@H](O)[C@@H](O)[C@@H]1O" shows IC50 equal to 1990

Entry "CC1(COc2ccc(Cc3cc([C@@H]4O[C@H](CO)[C@@H](O)[C@H](O)[C@H]4O)ccc3Cl)cc2)COC1" ; IC50 = 792

The reported value for "CN1CC(COc2ccc(Cc3cc([C@@H]4O[C@H](CO)[C@@H](O)[C@H](O)[C@H]4O)ccc3Cl)cc2)C1" in terms of IC50 is 1460

The compound identified as "OC[C@H]1O[C@@H](c2ccc(Cl)c(Cc3ccc(CCC4COC4)cc3)c2)[C@H](O)[C@@H](O)[C@@H]1O" registered its IC50 at 1060

IC50 reading for "OC[C@H]1O[C@@H](c2ccc(Cl)c(Cc3ccc(OCC4CNC4)cc3)c2)[C@H](O)[C@@H](O)[C@@H]1O" : 785

The reported value for "OC[C@H]1O[C@@H](c2ccc(Cl)c(Cc3ccc(OCCCC4(F)COC4)cc3)c2)[C@H](O)[C@@H](O)[C@@H]1O" in terms of IC50 is 1200

get_value(item= "OC[C@H]1O[C@@H](c2ccc(Cl)c(Cc3ccc(OCC4(CF)COC4)cc3)c2)[C@H](O)[C@@H](O)[C@@H]1O" , readout=IC50) returns 2550

New cases:
"OC[C@H]1O[C@@H](c2ccc(Cl)c(Cc3ccc(OCCC4CSC4)cc3)c2)[C@H](O)[C@@H](O)[C@@H]1O" yielded IC50 of 1300

compound "OC[C@H]1O[C@@H](c2ccc(Cl)c(Cc3ccc(OCCC4COC4)cc3)c2)[C@H](O)[C@@H](O)[C@@H]1O" , IC50 observed: 930

response.value for "OC[C@H]1O[C@@H](c2ccc(Cl)c(Cc3ccc(OCC4(F)COC4)cc3)c2)[C@H](O)[C@@H](O)[C@@H]1O" (field: IC50) = 2080

Looking up OC[C@H]1O[C@@H](c2ccc(Cl)c(Cc3ccc(OCC4CCO4)cc3)c2)[C@H](O)[C@@H](O)[C@@H]1O (single isomer, unassigned) [Compound 4] , I found its IC50 recorded as 1450

Input "OC[C@H]1O[C@@H](c2ccc(Cl)c(Cc3ccc(OCC4COC4)cc3)c2)[C@H](O)[C@@H](O)[C@@H]1O" . Output IC50: 2640

Noted for OC[C@H]1O[C@@H](c2ccc(Cl)c(Cc3ccc(OCC4CCO4)cc3)c2)[C@H](O)[C@@H](O)[C@@H]1O (single isomer, unassigned) [Compound 3] : its IC50 reads 2290

Reported IC50 ( "CCOc1ccc(Cc2cc([C@@H]3O[C@H](CO)[C@@H](O)[C@H](O)[C@H]3O)c(OCC3CNC3)cc2Cl)cc1" ) = 1950

These entries and their values trace back to patent US8980829B2.
